Cited source: patent US20260049138A1

KD ratio to GLS3000 for assorted binders
# system: CD3ε homodimer protein (human) (UniProt P07766)
# Sequence (P07766 23-126 limits assumed): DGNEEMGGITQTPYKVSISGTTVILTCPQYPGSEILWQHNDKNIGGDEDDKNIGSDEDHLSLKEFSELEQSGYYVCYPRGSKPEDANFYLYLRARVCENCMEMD
# experimental protocol: SPR

Sample answers from the record:
{"binder": "GLS3000 H34R (antibody, name in Kabat numbering, V domains shown) VH: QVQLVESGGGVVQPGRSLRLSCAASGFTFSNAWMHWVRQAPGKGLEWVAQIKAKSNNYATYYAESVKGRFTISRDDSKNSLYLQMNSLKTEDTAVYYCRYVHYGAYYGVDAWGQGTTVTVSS VL: DIVMTQSPLSLPVTPGEPASISCRSSQSLVHSNRNTYLRWYQQKPGQAPRLLIYKVSNRFSGVPDRFSGSGSGTDFTLKISRVEAEDVGVYYCGQGTQVPYTFGQGTKLEIK", "KD ratio to GLS3000": 85800}
{"binder": "GLS3000 G89R (antibody, name in Kabat numbering, V domains shown) VH: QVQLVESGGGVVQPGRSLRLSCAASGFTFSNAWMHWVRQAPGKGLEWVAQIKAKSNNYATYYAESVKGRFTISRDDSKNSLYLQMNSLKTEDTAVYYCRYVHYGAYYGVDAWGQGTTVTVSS VL: DIVMTQSPLSLPVTPGEPASISCRSSQSLVHSNRNTYLHWYQQKPGQAPRLLIYKVSNRFSGVPDRFSGSGSGTDFTLKISRVEAEDVGVYYCRQGTQVPYTFGQGTKLEIK", "KD ratio to GLS3000": 4130}

# input Entry GLS3000 H27dV (antibody, name in Kabat numbering, V domains shown) VH: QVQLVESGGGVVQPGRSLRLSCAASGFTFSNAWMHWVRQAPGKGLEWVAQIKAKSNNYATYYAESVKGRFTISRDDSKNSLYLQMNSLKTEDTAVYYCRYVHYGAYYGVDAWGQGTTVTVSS VL: DIVMTQSPLSLPVTPGEPASISCRSSQSLVVSNRNTYLHWYQQKPGQAPRLLIYKVSNRFSGVPDRFSGSGSGTDFTLKISRVEAEDVGVYYCGQGTQVPYTFGQGTKLEIK : reported KD ratio to GLS3000 = ?
# output 354

# input binder: GLS3000 H27dT (antibody, name in Kabat numbering, V domains shown) VH: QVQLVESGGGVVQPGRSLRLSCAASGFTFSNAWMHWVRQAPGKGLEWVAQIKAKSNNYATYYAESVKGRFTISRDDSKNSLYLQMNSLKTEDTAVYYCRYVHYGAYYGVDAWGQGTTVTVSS VL: DIVMTQSPLSLPVTPGEPASISCRSSQSLVTSNRNTYLHWYQQKPGQAPRLLIYKVSNRFSGVPDRFSGSGSGTDFTLKISRVEAEDVGVYYCGQGTQVPYTFGQGTKLEIK ; wanted: its KD ratio to GLS3000
# output 13000
